Here the recorded IC50 KA, receptor binding is given for each entry.
assay-system: kainic acid (KA) receptor
protocol-description: Radioligand binding: tritiated kainate binding with washed synaptosomal membranes from the rat forebrain
run-conditions: Table I; racemic; tritiated kainate 5 nM, pH 7.4; mean ± standard error (n = 3), values marked ^c single experiment

O=C(O)[C@@H]1C[C@H]2C[C@H](CCS(=O)(=O)O)CC[C@H]2CN1 (racemic); > 100 µM
O=C(O)[C@@H]1C[C@H]2C[C@@H](CCc3cc(O)no3)CC[C@H]2CN1 (racemic); > 100 µM
O=C(O)[C@@H]1C[C@H]2C[C@@H](CCSc3nnn[nH]3)CC[C@H]2CN1 (racemic); > 100 µM

# IC50 KA, receptor binding (molecule: O=C(O)[C@@H]1C[C@H]2C[C@@H](C=Cc3nsnc3O)CC[C@H]2CN1 (racemic) ) is > 100 µM

# IC50 KA, receptor binding (molecule: O=C(O)[C@@H]1C[C@H]2C[C@@H](CCc3nn[nH]n3)CC[C@H]2CN1 (relative stereo) ) is 246.98 ± 7.5 µM

# IC50 KA, receptor binding (molecule: CC(Cc1nn[nH]n1)[C@H]1CC[C@H]2CN[C@H](C(=O)O)C[C@H]2C1 (some centres unmarked) ) is 28.2 µM

# IC50 KA, receptor binding (molecule: O=C(O)[C@@H]1C[C@H]2C[C@@H](COCc3nnn[nH]3)CC[C@H]2CN1 (racemic) ) is > 10 µM

# IC50 KA, receptor binding (molecule: O=C(O)[C@@H]1C[C@H]2C[C@@H](CSc3ncn[nH]3)CC[C@H]2CN1 (racemic) ) is > 10 µM

Reference for the values: patent US5399696A
